- TARGET OF ASSAY: Menin (Homo sapiens) (UniProt O00255)
- Sequence (O00255 whole entry, looked up): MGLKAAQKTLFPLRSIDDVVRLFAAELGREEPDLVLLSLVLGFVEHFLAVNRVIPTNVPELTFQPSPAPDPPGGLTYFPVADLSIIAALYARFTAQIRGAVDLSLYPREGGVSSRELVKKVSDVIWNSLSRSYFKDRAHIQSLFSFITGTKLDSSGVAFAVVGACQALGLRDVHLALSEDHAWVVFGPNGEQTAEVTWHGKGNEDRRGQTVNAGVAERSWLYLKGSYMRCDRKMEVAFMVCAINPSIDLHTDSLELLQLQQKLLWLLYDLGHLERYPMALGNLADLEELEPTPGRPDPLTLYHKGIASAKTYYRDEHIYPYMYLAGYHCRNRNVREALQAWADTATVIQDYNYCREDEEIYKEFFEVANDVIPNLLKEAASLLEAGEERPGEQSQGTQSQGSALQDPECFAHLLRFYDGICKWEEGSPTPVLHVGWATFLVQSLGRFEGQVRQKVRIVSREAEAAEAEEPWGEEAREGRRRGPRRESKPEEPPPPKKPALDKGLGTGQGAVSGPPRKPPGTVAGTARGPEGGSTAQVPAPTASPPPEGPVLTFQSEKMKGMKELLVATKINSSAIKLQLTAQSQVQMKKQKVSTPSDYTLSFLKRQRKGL
- ASSAY REMARKS: Confirmation of Inhibitors Targeting the Menin-MLL Interaction in MLL Related Leukemias: Confirmation in an HTRF (commercial TR-FRET) Assay using His-tagged menin and biotin-labeled MLL peptide
- CONDITION DESCRIPTION: His-menin / biotin-MLL peptide binding; series mostly up to 126 µM
Inconclusive results are not listed. Calls of active or inactive are those of the source. Calls follow the shape of the dose curve; as a rule, active = well fitted inhibition curve with a large enough effect; inconclusive = small, poorly fitted or top-dose-only effect, or effect the other way; inactive = flat fitted curve, though single readings scatter.
// one of active, inactive, no free text

Check the results log: what was the call for COc1ccc2[nH]c3c(C)c4ccncc4c(C)c3c2c1 ?
active

Check the results log: what was the call for OC(c1ccccn1)(c1ccccn1)c1ccccn1 ?
inactive

Check the results log: what was the call for O=C(/C=C/c1ccccc1)NC(NC(=S)Nc1cc(Cl)ccc1Cl)C(Cl)(Cl)Cl (stereo not drawn) ?
inactive

These data points were gathered from PubChem BioAssay AID2778.
